test system: SK-OV-3; assay: NCI tumour cell line growth inhibition, 48 h
Calls of active or inactive are those of the source. No stated cut-off is given here; in the data, active = GI50 up to about 1.1 µM and inactive = higher.
Possible outcomes: yes (1) = active, no (0) = inactive

| compound | assigned.class |
| --- | --- |
| CC(C)(C)C1=CC(=C(c2ccc(-c3c4nc(c(-c5ccc(C(=C6C=C(C(C)(C)C)C(=O)C(C(C)(C)C)=C6)c6cc(C(C)(C)C)c(O)c(C(C)(C)C)c6)cc5)c5ccc([nH]5)c(-c5ccc(C(=C6C=C(C(C)(C)C)C(=O)C(C(C)(C)C)=C6)c6cc(C(C)(C)C)c(O)c(C(C)(C)C)c6)cc5)c5nc(c(-c6ccc(C(=C7C=C(C(C)(C)C)C(=O)C(C(C)(C)C)=C7)c7cc(C(C)(C)C)c(O)c(C(C)(C)C)c7)cc6)c6ccc3[nH]6)C=C5)C=C4)cc2)c2cc(C(C)(C)C)c(O)c(C(C)(C)C)c2)C=C(C(C)(C)C)C1=O | no (0) |
| Nc1c(S(=O)(=O)c2ccc(Cl)cc2)c2nc3ccccc3nc2n2ccnc12 | no (0) |
| O=C1c2ccccc2C(=O)C2NC(CCCCCSSCCCCCC3=NC4C(=O)c5ccccc5C(=O)C4N3)=NC12 (configuration not stated) | no (0) |
| COc1cc2c(c(OC)c1OC)-c1ccc(SC)c(=O)cc1[C@@H](NC(=O)C(F)(F)F)CC2 | yes (1) |
| Cn1c(=O)n2n(c1=O)C(C)(C13CC4CC(CC(C4)C1)C3)C13CC4CC(CC1C4)CC23 (configuration not stated) | no (0) |
| CC(=O)/C(=C\C1=CCCO1)C(=O)Nc1ccccc1C | no (0) |
| COC(=O)/C=C(/C=C1/C(C#N)=C(N)N(c2ccc(Cl)cc2)C1(C)/C(=C\C(=O)OC)C(=O)OC)C(=O)OC (configuration not stated) | no (0) |

Entry source: ChEMBL document CHEMBL1201862
